# Lookup of reported GI50 keyed by entry
Tested on: Malme-3M
Experiment: NCI tumour cell line growth inhibition, 48 h
Activity calls are given as the source filed them. No stated cut-off is given here; in the data, active = GI50 up to about 1.1 µM and inactive = higher.

Record excerpt, results attached:
CN(C)c1ccc(/C=C2\CCCCCC2=O)cc1	> 100 µM (inactive)
CC(C)(C)NNC(=O)/C(=C/c1ccc(Oc2ccc(Cl)c(Cl)c2)cc1)NC(=O)c1ccccc1	> 100 µM (inactive)
Cc1ccc(S(=O)(=O)NNC(=O)c2sc(-c3nc(C)c(C(=O)NNS(=O)(=O)c4ccc(C)cc4)s3)nc2C)cc1	> 100 µM (inactive)
C/C(=N\NC(=S)N1CCCCCC1)c1cccc2cccnc12	3.17 µM (inactive)
CN(C)c1ccc(/C=C/c2ccc(/C=C/c3ccc(N(C)C)cc3)cc2)cc1	13 µM (inactive)

Measured GI50, COC(=O)C(=O)C(C(=O)C(=O)Nc1ccc(Cl)cc1C)c1nc2ccc(C(=O)c3ccccc3)cc2nc1O (stereo not given) : > 100 µM (inactive)

Measured GI50, NC(=O)C1=C(O)C[C@@H]2CC3Cc4cccc(O)c4C(=O)C3=C(O)[C@]2(O)C1=O (stereo not given in full) : 2 µM (inactive)

Measured GI50, C#CC(O)/C=C/CCCCCCC#CC/C=C\CC#CCCCCCCCCC(O)C#C (stereo not given) : 1.95 µM (inactive)

Measured GI50, `C(=C1\CCC/C(=C/c2ccccc2)C1=NNc1ccccc1)/c1ccccc1` : > 100 µM (inactive)

Measured GI50, `CN(C)C(=S)NC(=S)Nc1ccc2ccccc2c1` : 13.8 µM (inactive)
